Organism: Oryctolagus cuniculus
procedure-summary: In vitro biological activity on rabbit aorta strip.
Assay type: functional
Square brackets hold non-standard residues; d marks the D form. Peptide text beside a SMILES is read from it. Sar = CNCC(=O)O
We begin with a simple list: items and their reported Activity.
measured-attribute: Activity

• CNCC(=O)N[C@@H](CCCN=C(N)N)C(=O)N[C@H](C(=O)N[C@@H](Cc1ccc(O)cc1)C(=O)N[C@H](C(=O)N[C@@H](Cc1c[nH]cn1)C(=O)N1CCC[C@H]1C(=O)N[C@@H](Cc1ccccc1)C(=O)O)C(C)C)C(C)C (H-[Sar]RVYVHPF-OH) = 100%
• CNCC(=O)N[C@@H](CCCN=C(N)N)C(=O)N[C@H](C(=O)N[C@@H](Cc1cc([N+](=O)[O-])c(O)c([N+](=O)[O-])c1)C(=O)N[C@H](C(=O)N[C@@H](Cc1c[nH]cn1)C(=O)N1CCC[C@H]1C(=O)N[C@@H](Cc1ccccc1)C(=O)O)C(C)C)C(C)C = 7.8%
• CNCC(=O)N[C@@H](CCCN=C(N)N)C(=O)N[C@H](C(=O)N[C@@H](Cc1cc(I)c(N)c(I)c1)C(=O)N[C@H](C(=O)N[C@@H](Cc1c[nH]cn1)C(=O)N1CCC[C@H]1C(=O)N[C@@H](Cc1ccccc1)C(=O)O)C(C)C)C(C)C = 2.7%
• CNCC(=O)N[C@@H](CCCN=C(N)N)C(=O)N[C@H](C(=O)N[C@@H](Cc1ccc(N)cc1)C(=O)N[C@H](C(=O)N[C@@H](Cc1c[nH]cn1)C(=O)N1CCC[C@H]1C(=O)N[C@@H](Cc1ccccc1)C(=O)O)C(C)C)C(C)C = 15%

###

Species on record: Oryctolagus cuniculus
procedure-summary: In vitro biological activity on rabbit aorta strip.
Type: functional
Class MET: Activity at least 60%. Class NOT MET: Activity below 60%.

• CNCC(=O)N[C@@H](CCCN=C(N)N)C(=O)N[C@H](C(=O)N[C@@H](Cc1ccc([N+](=O)[O-])cc1)C(=O)N[C@H](C(=O)N[C@@H](Cc1c[nH]cn1)C(=O)N1CCC[C@H]1C(=O)N[C@@H](Cc1ccccc1)C(=O)O)C(C)C)C(C)C = NOT MET
• CNCC(=O)N[C@@H](CCCN=C(N)N)C(=O)N[C@H](C(=O)N[C@@H](Cc1cc(Cl)c(O)c(Cl)c1)C(=O)N[C@H](C(=O)N[C@@H](Cc1c[nH]cn1)C(=O)N1CCC[C@H]1C(=O)N[C@@H](Cc1ccccc1)C(=O)O)C(C)C)C(C)C = NOT MET
• CNCC(=O)N[C@@H](CCCN=C(N)N)C(=O)N[C@H](C(=O)N[C@@H](Cc1ccc(O)c(N=[N+]=[N-])c1)C(=O)N[C@H](C(=O)N[C@@H](Cc1c[nH]cn1)C(=O)N1CCC[C@H]1C(=O)N[C@@H](Cc1ccccc1)C(=O)O)C(C)C)C(C)C = MET
• CNCC(=O)N[C@@H](CCCN=C(N)N)C(=O)N[C@H](C(=O)N[C@@H](Cc1ccc(S(=O)(=O)O)cc1)C(=O)N[C@H](C(=O)N[C@@H](Cc1c[nH]cn1)C(=O)N1CCC[C@H]1C(=O)N[C@@H](Cc1ccccc1)C(=O)O)C(C)C)C(C)C = NOT MET
• CNCC(=O)N[C@@H](CCCN=C(N)N)C(=O)N[C@H](C(=O)N[C@@H](Cc1ccc(O)c([N+](=O)[O-])c1)C(=O)N[C@H](C(=O)N[C@@H](Cc1c[nH]cn1)C(=O)N1CCC[C@H]1C(=O)N[C@@H](Cc1ccccc1)C(=O)O)C(C)C)C(C)C = NOT MET
• CNCC(=O)N[C@@H](CCCN=C(N)N)C(=O)N[C@H](C(=O)N[C@@H](Cc1ccc(O)c(Cl)c1)C(=O)N[C@H](C(=O)N[C@@H](Cc1c[nH]cn1)C(=O)N1CCC[C@H]1C(=O)N[C@@H](Cc1ccccc1)C(=O)O)C(C)C)C(C)C = MET
• CNCC(=O)N[C@@H](CCCN=C(N)N)C(=O)N[C@H](C(=O)N[C@@H](Cc1ccc(N=[N+]=[N-])cc1)C(=O)N[C@H](C(=O)N[C@@H](Cc1c[nH]cn1)C(=O)N1CCC[C@H]1C(=O)N[C@@H](Cc1ccccc1)C(=O)O)C(C)C)C(C)C = NOT MET
• CNCC(=O)N[C@@H](CCCN=C(N)N)C(=O)N[C@H](C(=O)N[C@@H](Cc1ccc(O)c(N)c1)C(=O)N[C@H](C(=O)N[C@@H](Cc1c[nH]cn1)C(=O)N1CCC[C@H]1C(=O)N[C@@H](Cc1ccccc1)C(=O)O)C(C)C)C(C)C = MET
